target-under-test: FGFR2 (Homo sapiens (Human), UniProt P21802)
Sequence (P21802 22-821): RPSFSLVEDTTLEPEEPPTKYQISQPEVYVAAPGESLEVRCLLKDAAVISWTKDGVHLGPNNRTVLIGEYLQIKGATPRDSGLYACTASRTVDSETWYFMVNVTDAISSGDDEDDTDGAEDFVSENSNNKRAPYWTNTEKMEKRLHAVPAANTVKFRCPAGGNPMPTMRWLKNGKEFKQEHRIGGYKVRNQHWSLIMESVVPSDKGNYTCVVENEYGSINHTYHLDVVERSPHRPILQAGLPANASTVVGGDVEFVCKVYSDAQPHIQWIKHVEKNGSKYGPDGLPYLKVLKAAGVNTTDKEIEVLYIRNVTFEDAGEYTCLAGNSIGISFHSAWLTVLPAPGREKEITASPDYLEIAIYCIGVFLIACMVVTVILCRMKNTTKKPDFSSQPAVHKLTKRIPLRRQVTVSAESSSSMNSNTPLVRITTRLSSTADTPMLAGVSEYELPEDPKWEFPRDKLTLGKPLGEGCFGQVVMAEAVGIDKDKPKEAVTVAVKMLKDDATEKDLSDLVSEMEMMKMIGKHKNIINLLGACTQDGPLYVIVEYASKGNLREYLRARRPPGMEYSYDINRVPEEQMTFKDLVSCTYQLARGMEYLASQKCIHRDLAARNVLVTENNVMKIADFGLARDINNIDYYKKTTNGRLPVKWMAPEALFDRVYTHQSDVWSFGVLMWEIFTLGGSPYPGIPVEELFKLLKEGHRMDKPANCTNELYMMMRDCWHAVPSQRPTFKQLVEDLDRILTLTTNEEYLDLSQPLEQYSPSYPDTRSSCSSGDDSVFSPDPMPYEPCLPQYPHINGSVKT
measurement-description: Biochemical FGFR2 Caliper assay
quantity: IC50

1. CC1=CCN(c2ccc(-c3c(-c4ccc(Oc5nccc(C)n5)cc4)c4c(N)ncnc4n3C)cc2)C1=O [Example 924] | 1 to 100 µM

Sample `C=C(C)C(=O)Nc1ccc(-c2c(-c3ccc(C(=O)N[C@H]4C[C@H](F)C4)c(OC4CC4)c3)c3c(N)ncnc3n2C)cc1` ; IC50 observed: 0.25 to 1 µM

Sample `C#Cc1cc(C)c(-c2c(-c3ccc(C(=O)NC4CCC4)c(OC)c3)c3c(N)ncnc3n2C)cn1` ; IC50 observed: 1 to 100 µM

Sample `C=C(C)C(=O)Nc1ccc(-c2c(-c3ccc4ncccc4c3)c3c(N)ncnc3n2C)cc1` ; IC50 observed: 1 to 100 µM

Sample `C#Cc1nc2cc(-c3c(-c4ccc(Oc5nccc(C)n5)c(F)c4)c4c(N)ncnc4n3C)c(C)cc2n1C` ; IC50 observed: < 0.1 µM

Sample C#Cc1cc(C)c(-c2c(-c3ncc(Oc4nccc(C)n4)cc3F)c3c(N)ncnc3n2C)c(C)n1 (atropisomer, axis not shown) ; IC50 observed: < 0.1 µM

Sample `C#Cc1ccc(-c2c(-c3ccc(Oc4nccc(C)n4)c(F)c3)c3c(N)ncnc3n2C)c(C)n1` ; IC50 observed: < 0.1 µM

----------
target-under-test: FGFR2 (Homo sapiens (Human), UniProt P21802)
measurement-description: Biochemical FGFR2 Caliper assay
quantity: IC50

Use the examples below as a reference point.
1. C=CC(=O)N1CCC(n2cc(-c3c(-c4ccc(Oc5ccn(C)n5)cc4)c4c(N)ncnc4n3C)cn2)CC1 | 250 to 1000 nM
2. C=CC(=O)NC1CC=C(c2c(-c3ccc(Oc4nccc(C)n4)c(F)c3)c3c(N)ncnc3n2C)CC1 (stereo not drawn) | 100 to 250 nM
3. C=C(C)C(=O)Nc1ccc(-c2c(-c3ccc4cn[nH]c4c3)c3c(N)ncnc3n2C)cc1 | 1000 to 100000 nM
4. C=CC(=O)Nc1ccc(-c2c(-c3ccc(-n4cc(C)cn4)nc3)c3c(C)ncnc3n2C)cc1 | 100 to 250 nM
5. C#Cc1ccc(-c2c(C3=CC[C@@H](C(=O)N4CCCC4)CC3)c3cncnc3n2C)c(C)n1 (single isomer, unassigned) | 1000 to 100000 nM
6. C=CC(=O)NCc1cccc(-c2c(-c3ccc(Oc4cccc(C)n4)cc3)c3c(N)ncnc3n2C)c1 | 250 to 1000 nM
7. C#Cc1ncc2cc(-c3c(-c4ccc(Oc5nccc(C)n5)c(F)c4)c4c(N)ncnc4n3C)ccc2n1 | < 100 nM
8. C=C(C)C(=O)Nc1ccc(-c2c(-c3ccc(C(=O)NC4CCC4)c(OC)c3)c3c(N)ncnc3n2C)cc1 | < 100 nM

Lab note: compound `C=CC(=O)Nc1ccc(-c2c(-c3c[nH]c4ccccc34)c3c(N)ncnc3n2C)cc1` tested on FGFR2 (Homo sapiens (Human), UniProt P21802); recorded IC50 was 250 to 1000 nM

Lab note: compound `C#Cc1cc(C)c(-c2c(-c3ccc(Oc4nccc(C)n4)c(F)c3)c3c(Cl)ncnc3n2C)cn1` tested on FGFR2 (Homo sapiens (Human), UniProt P21802); recorded IC50 was < 100 nM

Lab note: compound `C=C(C)C(=O)Nc1ccc(-c2c(-c3ccc(-c4ccccn4)s3)c3c(N)ncnc3n2C)cc1` tested on FGFR2 (Homo sapiens (Human), UniProt P21802); recorded IC50 was 250 to 1000 nM

Lab note: compound `C=C(C)C(=O)Nc1ccc(-c2c(-c3ccc(C(=O)N[C@H]4C[C@@H](F)C4)c(COC)c3)c3c(N)ncnc3n2C)cc1` tested on FGFR2 (Homo sapiens (Human), UniProt P21802); recorded IC50 was 1000 to 100000 nM

Lab note: compound `C#Cc1ncc(-c2c(-c3ccc(Oc4nccc(C)n4)c(F)c3)c3c(N)ncnc3n2C(C)C)c(C)c1F` tested on FGFR2 (Homo sapiens (Human), UniProt P21802); recorded IC50 was < 100 nM

Lab note: compound C=CC(=O)N1CCC(c2c(-c3ccc(-n4cc(C)cn4)cc3)c3c(N)ncnc3n2C)C1 (stereo not drawn) tested on FGFR2 (Homo sapiens (Human), UniProt P21802); recorded IC50 was 100 to 250 nM

Lab note: compound `C#Cc1ncc(-c2c(-c3ccc(Oc4nccc(C)n4)c(F)c3)c3c(C)ncnc3n2C)c(C)c1OC` tested on FGFR2 (Homo sapiens (Human), UniProt P21802); recorded IC50 was 250 to 1000 nM

----------
target-under-test: UniProt:P21802
measurement-description: Biochemical FGFR2 Caliper assay
quantity: IC50

Use the examples below as a reference point.
1. C=C(C)C(=O)Nc1ccc(-c2c(-c3ccc4c(c3)OC[C@H]4c3cccc(C)n3)c3c(N)ncnc3n2C)cc1 (single isomer, unassigned) | < 100 nM
2. C#Cc1cc(C)c(-c2c(C3=CC[C@@H](C(=O)N4CCC[C@H]4C#N)CC3)c3c(C)ncnc3n2C)c(C)n1 (atropisomer, axis not shown) [Example 1466] | 100 to 250 nM

Here is the next item to consider.
Sample `C#Cc1ncc(-c2c(-c3ccc(Oc4nccc(C)n4)c(F)c3)c3c(N)ncnc3n2C)c(C)c1C` ; IC50 observed: < 100 nM

----------
target-under-test: FGFR2 (Homo sapiens (Human))
measurement-description: FGFR2 Biochemical Caliper Assay
pIC50: −log10 of the molar value.
quantity: pIC50

1) C=C(C)C(=O)Nc1ccc(-c2c(-c3ccc(Oc4ncc(F)c(C)n4)c(F)c3)c3c(N)ncnc3n2C)cc1 [Example 515] | > 7.00
2) C/C=C/C(=O)N1CCC(c2c(-c3ccc(Oc4cccc(C)n4)cc3)c3c(N)ncnc3n2C)CC1 [Example 694] | 6.00 to 6.60
3) C=CC(=O)N1CCC(c2c(-c3ccc(Oc4cccc(C)n4)c(OC)c3)c3c(N)ncnc3n2C)CC1 [Example 619] | 6.60 to 7.00
4) C=C(C)C(=O)Nc1ccc(-c2c(-c3ccc(C(=O)NCC4CCCN4C)cc3)c3c(N)ncnc3n2C)cc1 (centres unmarked) [Example 377] | 6.00 to 6.60
5) C=C(C)C(=O)Nc1ccc(-c2c(-c3ccc(C(=O)N(C)C(CF)CF)cc3)c3c(N)ncnc3n2C)cc1 [Example 412] | > 7.00

Sample C/C(=C\CN(C)C)C(=O)N1CCC(n2cc(-c3c(-c4ccc(Oc5cccc(C)n5)cc4)c4c(N)ncnc4n3C)cn2)CC1 [Example 655] ; pIC50 observed: 6.00 to 6.60

Sample C=C(C)C(=O)Nc1ccc(-c2c(-c3ccc(C(=O)N(C)CC4(F)COC4)cc3)c3c(N)ncnc3n2C)cc1 [Example 411] ; pIC50 observed: 6.00 to 6.60

Sample C=C(C)C(=O)Nc1ccc(-c2c(-c3ccc4cn(C)nc4c3)c3c(N)ncnc3n2C)cc1 [Example 164] ; pIC50 observed: 6.60 to 7.00

Sample C=CC(=O)N[C@H]1CC[C@H](c2c(-c3ccc(Oc4cccc(C)n4)c(OC)c3)c3c(N)ncnc3n2C)CC1 [Example 625] ; pIC50 observed: 6.00 to 6.60

Sample C=C(C)C(=O)Nc1ccc(-c2c(C3=CCC(Oc4ccn(C)n4)CC3)c3c(N)ncnc3n2C)cc1 (centres unmarked) [Example 551] ; pIC50 observed: 6.00 to 6.60

Sample C=C(C)C(=O)Nc1ccc(-c2c(-c3ccc(C(=O)N4CCOCC4)cc3)c3c(N)ncnc3n2C)cc1 [Example 176] ; pIC50 observed: 4.00 to 6.00

Sample C=CC(=O)Nc1ccc(-c2c(C3=CCC(C(=O)NC4CCCC4)CC3)c3c(N)ncnc3n2C)cc1 (centres unmarked) [Example 298] ; pIC50 observed: > 7.00

Sample C=CC(=O)N1CCC(c2c(-c3ccc(Oc4cccc(C)n4)c(OC)c3)c3c(N)ncnc3n2C)C1 (centres unmarked) [Example 670] ; pIC50 observed: 6.00 to 6.60

----------
target-under-test: FGFR2 (Homo sapiens (Human), UniProt P21802)
measurement-description: Biochemical FGFR2 Caliper assay
quantity: IC50

1) C=C(C)C(=O)Nc1ccc(-c2c(-c3ccc(Oc4cccc(C)n4)cc3)c3c(N)ncnn3c2C)cc1 [Example 836] | < 100 nM

Sample C#Cc1cc(C)c(-c2c(-c3ccc(Oc4nc(C)cc(C)n4)c(F)c3)c3c(N)ncnc3n2C)cn1 [Example 1368] ; IC50 observed: < 100 nM

Sample C=CC(=O)N1CCC(c2c(-c3cnn(-c4ccccc4C)c3)c3c(N)ncnc3n2C)C1 (stereo not shown) [Example 817] ; IC50 observed: 100 to 250 nM

Sample C=Cc1ncc(-c2ccc(-c3c(-c4ccc(Oc5nccc(C)n5)cc4)c4c(N)ncnc4n3C)cc2)s1 [Example 984] ; IC50 observed: < 100 nM
